experiment: Toxicity liver stage against HepG2, at 10uM; assay type: cell-based; set-up: test concentration 10 uM, cell line HepG2-A16-CD81EGFP; conditions: human, HepG2-A16-CD81EGFP cells; read-out: INHIBITION
In this section, each of the compounds is paired with its reported cytotoxicity at 10 µM.

# COMPOUND, cytotoxicity at 10 µM
measured = [
    ("NC(=O)CN1CCC(c2cc(C(F)(F)F)n3ccnc3n2)CC1", "-2.28%"),
    ("CO[C@@H]1CCN(Cc2c(C)noc2C)[C@@H]2CN(Cc3ccco3)C[C@@H]21", "8.64%"),
    ("C=C(C)CN1CCC(NC(=O)NCCc2ccccc2OC)CC1", "14.2%"),
    ("CCc1cnc(NCCCOC2CCCC2)nc1", "-0.0184%"),
    ("CCc1cc(N2CCCNCC2)n2nc(C)c(C)c2n1", "4.46%"),
    ("CN(Cc1cc(C(C)(C)C)n[nH]1)C(=O)c1ccc2nccn2c1", "-7.01%"),
    ("CCOC(=O)c1sc2ccsc2c1CN", "-1.86%"),
    ("COc1ccc(C)cc1CN1CCn2cccc2C1C (centres undefined)", "18.3%"),
    ("CN(CC(=O)Nc1nc2c(s1)CCCCCC2)C(=O)c1ccco1", "37.9%"),
    ("CN(c1ncnc2c1CCC2)C1CCCN(c2cccnn2)C1 (centres undefined)", "1.72%"),
    ("Cc1ccccc1N1CC2(CCN(c3nncs3)C2)CC1=O (centres undefined)", "-7.74%"),
    ("Cc1cnn(C(C)C2CC2)c1NC(=O)c1ccc(Cn2cnnn2)cc1 (centres undefined)", "-2.06%"),
    ("Cn1ccc2c(NC(=O)Cn3ncc4c(c3=O)CCCC4)cccc21", "2.33%"),
    ("CC(=O)N[C@@H]1CN(Cc2nc3ccccc3[nH]2)C[C@H]1c1ccc(C)o1", "2.75%"),
    ("Cc1nc(CSCCC(=O)Nc2cccc(N3CCNC3=O)c2)cs1", "5.31%"),
    ("O=C(CN1CCCC1Cn1cncn1)NCC1(c2ccccc2)CC1 (centres undefined)", "4.74%"),
    ("O=S(=O)(c1cccnc1)N1C[C@H]2CCC[C@@]2(COc2ccccn2)C1", "7.05%"),
    ("Cc1noc(C)c1CN(C)C(=O)COc1cccc(C#N)c1", "5.3%"),
    ("CCCN1CCN(S(=O)(=O)c2ccccc2OC)[C@H]2CS(=O)(=O)C[C@H]21", "-3.56%"),
    ("CN(C)C(=O)c1ccc(-c2cscn2)cc1", "1.53%"),
    ("COCC1c2nnn(CC3CC3)c2CCN1C(=O)C1CCOCC1 (centres undefined)", "-136%"),
    ("Cc1nn(C)c(C)c1C1COCCN1C(=O)c1ccccc1 (centres undefined)", "-10.2%"),
    ("O=C(COCC(=O)N(c1ccccc1)c1ccccc1)N1CCCCC1", "2.33%"),
    ("Cn1cnnc1C1CCCN(C(=O)c2cc3ccccc3[nH]2)C1 (centres undefined)", "-7.88%"),
]

----------
assay: Toxicity liver stage against HepG2, at 10uM; assay type: cell-based; set-up: test concentration 10 uM, cell line HepG2-A16-CD81EGFP; conditions: human, HepG2-A16-CD81EGFP cells; read-out: INHIBITION
Measured cytotoxicity at 10 µM, listed per entry for reference.

# COMPOUND, UNIT SPEC, cytotoxicity at 10 µM
records = [
    ("Cc1noc(C)c1CC(=O)N1CC[C@@](C)(O)[C@H](Oc2ccccc2)C1", "%", 0.935),
    ("CC(C)c1ncncc1C(=O)NCCN1CCCCCC1", "%", 5.15),
    ("COCCC1COC2(CCN(C(=O)c3ccco3)CC2)C1 (configuration not stated)", "%", 3.63),
    ("Cc1ccc(-c2nnc(CN3CCn4c(nnc4C4CC4)C3)o2)cc1", "%", -6.37),
    ("CN(Cc1ccccc1)C(=O)CS(=O)(=O)Cc1ccc(Cl)c(Cl)c1", "%", 0.239),
    ("CC(C)CCN1C[C@@H]2C[C@H](C(=O)N3CCCC3)[C@H](C1)O2", "%", 4.82),
    ("CCN(Cc1nonc1C)C(=O)c1ccc(Br)o1", "%", 0.621),
    ("Cc1ccc2nc(C)c(C)c(C(=O)N3CCS(=O)(=O)CC3)c2c1", "%", 3.24),
    ("OCCNc1cc(-c2ccccc2)ncn1", "%", -7.94),
    ("Cc1nc(CCNC(=O)C2CC(=O)N(C(C)C)C2)sc1C (configuration not stated)", "%", -14),
    ("COc1ccc(C(=O)N2C[C@@H](C(=O)O)[C@H](c3ccccc3)C2)c(O)c1", "%", -2.14),
    ("Cc1nc(C)c(C(=O)Nc2cc(N3CCC(C)CC3)ncn2)s1", "%", -8.11),
    ("COCCCN1CC2(CCN(Cc3ncc[nH]3)CC2)CC1=O", "%", -2.89),
    ("COc1ccc(-n2cccn2)c(CN2CCC3(CCCN(C)C3=O)C2)c1 (configuration not stated)", "%", 10.2),
    ("O=C(c1cccn2ccnc12)N1CCCN(c2cccnn2)CC1", "%", 1.68),
    ("CCn1cc(CNCC(c2ccc(Cl)cc2)n2cccn2)cn1 (configuration not stated)", "%", 6.67),
    ("CCn1ncc2c1CCCC2NCc1cccc2c1OCCCO2 (configuration not stated)", "%", -13.4),
    ("CC(=O)N(C)CC(=O)Nc1cnc(-n2ccnc2C)nc1", "%", 3.86),
    ("O=C(Cc1cnccn1)N1CCC(c2nccn2CC2CC2)CC1", "%", -7.54),
    ("CCO[C@@H]1CCN(C(=O)N(C)C)[C@@H]1Cc1cnn(C)c1", "%", -73.4),
    ("Fc1cccc(CN2CCC(c3n[nH]c4ncccc34)CC2)c1F", "%", -2.86),
    ("Cn1ccnc1-c1ccc(NCC2COCCO2)nn1 (configuration not stated)", "%", 9.3),
    ("COCCN1C(=O)CO[C@@H]2CN(S(=O)(=O)c3ccccc3)C[C@H]21", "%", 0.975),
    ("CNC(=O)[C@@H]1C[C@H](N)CN1Cc1cc2cc(C)cc(C)c2[nH]c1=O", "%", -1.72),
    ("COc1ccnc(N2CCN(CC(O)CN3CCOCC3)CC2)n1 (configuration not stated)", "%", -3.44),
    ("CC(C)C(C)NC(=O)CCN1C(=O)CCc2cc(F)ccc21 (configuration not stated)", "%", 8.91),
    ("CSCC(=O)N1CCCC(n2ccnc2C(C)C)C1 (configuration not stated)", "%", -18.2),
    ("CCCNC(=O)c1nc2c(o1)CN(C(=O)CN(C)C)C2", "%", 0.0773),
    ("CCNC(=O)N1CCC2(CC1)CCn1c(-c3cccc(OC)c3)cnc12", "%", 2.81),
    ("COc1cc([C@@H]2N[C@H](c3nccs3)Cc3ccsc32)cc(OC)c1OC", "%", 8.71),
    ("O=C(c1cc(=O)[nH]c(=O)[nH]1)N1CCCCC1c1ccc(F)cc1 (configuration not stated)", "%", -10.2),
    ("C/C=C(\\C)CN1C[C@@H](NC(=O)c2ccc(O)c(Cl)c2)C[C@H]1C(=O)NCC", "%", 9.23),
    ("CC(C)[C@H]1CN(c2ccnc(N)n2)C[C@@H]1NC(=O)C1(C#N)CCOCC1", "%", -2.8),
    ("CC(C)(C)C(Cn1cccn1)NC(=O)c1ccco1 (configuration not stated)", "%", -5.5),
    ("O=C(c1ccco1)N1CCCC2(CN(Cc3ccc(F)cc3)CCO2)C1 (configuration not stated)", "%", 0.0288),
    ("Cc1ncc(CN2CCC(CNS(=O)(=O)C3CC3)C2)cn1 (configuration not stated)", "%", 2.84),
    ("CCC(c1nc(CC(C)C)nn1-c1ccccn1)n1cccn1 (configuration not stated)", "%", -8.74),
    ("CCc1n[nH]c(=O)c(C(=O)N2CCOC3(CCCC3)C2)c1CC", "%", 13.3),
    ("CC(C)c1cc(NCC(O)c2ccncc2)n2nccc2n1 (configuration not stated)", "%", -1.8),
    ("CN1[C@H](CN2CCCC2)C[C@@H]2CN(C(=O)Cc3cccs3)CC[C@@H]21", "%", 4.99),
    ("CN1CC2(CCN(C(=O)c3[nH]cnc3-c3ccccc3)C2)OC1=O (configuration not stated)", "%", 4.43),
    ("CNC(=O)C1CCCN(C(=O)c2cncs2)C1 (configuration not stated)", "%", 4.94),
    ("CC1CCN(CCCNC(=O)c2ccc(N(C)S(C)(=O)=O)cc2Cl)CC1", "%", -0.488),
    ("Cn1cc(C2CCCN2Cc2cscn2)cn1 (configuration not stated)", "%", 4.24),
    ("c1ncn(Cc2cnc3n2CCN(Cc2ccsc2)CC3)n1", "%", 6.2),
    ("NC(=O)CCn1cc(CNCc2csc(N)n2)c2ccccc21", "%", 6.7),
    ("COc1ccc(CN2CCN(CCn3ccnc3)CC2)cc1F", "%", -8.88),
]
